- System: HL-60
- ASSAY METHOD TEXT: NCI tumour cell line growth inhibition, 48 h
Activity calls are given as the source filed them. No stated cut-off is given here; in the data, active = GI50 up to about 1.1 µM and inactive = higher.
Possible outcomes: class 1 (active), class 0 (inactive)

* CC(NC(=O)/C(=C/c1ccccc1O)NC(=O)c1ccccc1)C(=O)O (stereo not given) | class 0
* CC1=C(O)C(=O)C=C2C1=CC=C1[C@@]2(C)CC[C@@]2(C)[C@@H]3C[C@](C)(C(=O)O)CC[C@]3(C)CC[C@]12C [CELASTROL] | class 1
* CCCCCCCCCCCCCCCC(=O)NCC(OCC)OCC | class 0
* S=c1[nH]c(=S)c2nnn(-c3ccccc3)c2[nH]1 | class 0
* CC(=O)NC1C(O)CC(OCCCSCCN)(C(=O)O)OC1C(O)C(O)CO (stereo not given) | class 0
* Cc1ccc2nc(Cl)c(/C=N/N3C(=O)/C(=C/c4ccccc4S)N=C3c3ccccc3)cc2c1 | class 0
* CO[C@]12C[C@H](CNC(=O)c3cc(Br)c(Br)[nH]3)O[C@H]1NC(=O)N2 | class 0
* COc1ccc(CC(N)=O)cc1OC | class 0
* C=C(C(=O)O[C@H]1C(=O)C2=C(C)CCC3C(=C)C(=O)O[C@@H]3C2[C@]1(C)O)C1CC[C@]2(C)CCCC(=C)[C@H]2C1 (stereo not given in full) | class 0
* CCOc1ccccc1NC(=O)CC1C(=O)Nc2ccccc2[S+]1[O-] (stereo not given) | class 0

###

- Tested on: RXF 393
- ASSAY METHOD TEXT: NCI tumour cell line growth inhibition, 48 h
Activity calls are given as the source filed them. Rule as the data show it: active = GI50 up to about 1.1 µM and inactive = higher.
READOUT NAME: GI50

* O=C(OCC(OC(=O)c1ccccc1)C1CC(C2(O)CCCCC2)C(=O)O1)c1ccccc1 (stereo unspecified) | > 25 µM (inactive)
* CC1(C)N(OC2CCCCO2)C(c2ccccc2)C(c2ccccc2)=[N+]1[O-] (stereo unspecified) | 47.5 µM (inactive)
* CN(C)CCNC(=O)c1cccc2[nH]c(-c3ccccn3)nc12 | 51.2 µM (inactive)
* c1ccc(CCNCc2ccco2)nc1 | > 100 µM (inactive)
* COc1ccc(C2OC(N)=C(C#N)C3=C2CCCC3C)cc1OC (stereo unspecified) | > 100 µM (inactive)
* C=C(C(=O)O[C@H]1C(=O)C2=C(C)CCC3C(=C)C(=O)O[C@@H]3C2[C@]1(C)O)C1CC[C@]2(C)CCCC(=C)[C@H]2C1 (stereo partly specified) | 0.0246 µM (active)
* CCCCCCCCCCCCCCCC(=O)NCC(OCC)OCC | > 100 µM (inactive)
* O=C(O)CSCC(=O)c1ccccc1 | > 100 µM (inactive)
* O=C(CCN1CCCC1)c1ccc(Oc2ccc(F)cc2)cc1 | 22.3 µM (inactive)
* CCOC(=O)NC(OCCN(C)C)(C(F)(F)F)C(F)(F)F | 9.79 µM (inactive)
* O=C1C(c2ccccc2)=C(c2ccccc2)C(c2ccc(CCCCCCc3ccc(C4=C(c5ccccc5)C(=O)C(c5ccccc5)=C4c4ccccc4)cc3)cc2)=C1c1ccccc1 | 26.4 µM (inactive)
* CCOC(=O)C(C#N)(Cc1c[nH]c2ccccc12)NC(C)=O (stereo unspecified) | > 100 µM (inactive)
* O=C1OCc2nc3c(c(-c4ccccc4C(F)(F)F)c21)C(=O)OC3 | > 100 µM (inactive)
* C=CCC1(C#N)C(=S)NC2=C(C(=O)CC(C)(C)C2)C1c1ccccc1 (stereo unspecified) | 42.7 µM (inactive)
* O=C1c2cc3c(cc2[C@@H]2NC4CCCC14O2)OCO3 (stereo partly specified) | > 100 µM (inactive)
* CCOC(=O)c1c(NC(=O)c2ccc(OC)cc2)sc2c1CCCC2 | > 100 µM (inactive)
* COc1ccc(C2SCC(=O)N2NC(=O)C(C)Oc2ccc(Cl)cc2Cl)cc1 (stereo unspecified) | 25.6 µM (inactive)
* Cc1cc(C)c2c(=N)c3ccccc3n(CCCCCCn3c4ccccc4c(=N)c4c(C)cc(C)nc43)c2n1 | 1.25 µM (inactive)
* N#C/N=C1\NC(Cc2ccccc2)C(=O)N1CCc1c[nH]c2ccccc12 (stereo unspecified) | > 10 µM (inactive)
* CCN(CC)CCNC(=O)c1cc2cc(NC(=O)c3cc4cc(NC(=O)c5cc6cc([N+](=O)[O-])ccc6[nH]5)ccc4[nH]3)ccc2[nH]1 | > 100 µM (inactive)
* CN(CCO)/N=N/c1n[nH]cc1C(N)=O | > 100 µM (inactive)
